- target_or_test_system: ERα (Homo sapiens)
- Construct: expressed in transfected cells
- Sequence (P03372 whole entry, species assumed): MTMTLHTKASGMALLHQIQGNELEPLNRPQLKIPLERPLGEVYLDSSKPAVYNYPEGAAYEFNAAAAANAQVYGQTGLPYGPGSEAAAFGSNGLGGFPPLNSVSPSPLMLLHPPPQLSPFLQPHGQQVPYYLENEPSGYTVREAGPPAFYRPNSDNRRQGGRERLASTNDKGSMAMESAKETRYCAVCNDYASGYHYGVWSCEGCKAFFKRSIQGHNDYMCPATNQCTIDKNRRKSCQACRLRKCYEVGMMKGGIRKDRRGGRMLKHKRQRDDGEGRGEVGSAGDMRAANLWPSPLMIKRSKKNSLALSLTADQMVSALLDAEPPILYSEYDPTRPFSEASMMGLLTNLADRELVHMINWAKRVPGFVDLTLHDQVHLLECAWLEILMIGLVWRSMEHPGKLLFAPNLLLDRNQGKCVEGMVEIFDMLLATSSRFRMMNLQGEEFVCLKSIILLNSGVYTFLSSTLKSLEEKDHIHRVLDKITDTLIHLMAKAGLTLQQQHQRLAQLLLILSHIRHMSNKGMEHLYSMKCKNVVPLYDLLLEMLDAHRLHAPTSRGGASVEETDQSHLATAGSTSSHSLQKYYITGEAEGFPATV
- experiment: Counterscreening, Firefly signal with ERα transient transfection (Firefly_ERa)
- Format: cell-based
- measurement_context: Table 15; 40 uM
experimental_readout: Firefly ERalpha transient, cmpd/DMSO (mean)
Write the number on its own, no unit after it.

Solved cases (5 shown):
COc1cccc(-c2noc(Cn3nccc(Cl)c3=O)n2)c1 = 1.7
CCOC(=O)c1cnc2c(C)cc(C)cc2c1NCCCN = 0.8
CCOC(=O)c1cnc2c(C)cc(C)cc2c1NCCCN1CCCCC1 [Compound Z9] = 0.5
CCOC(=O)c1cnc2c(C)cc(C)cc2c1N1CCC(N(C)C)CC1 = 0.7
COc1cccc(-c2noc(Cn3ncccc3=O)n2)c1 = 2.4

Moving on to the next compound.
Query for ERα (Homo sapiens): what Firefly ERalpha transient, cmpd/DMSO (mean) does the record show for CCOC(=O)c1cnc2c(C)cc(C)cc2c1NCCCN1CCCCC1 [Compound Z19] ?
0.7
